assay: soluble on expression in E. coli; label from the status in PepcDB or PDB records
Measured endpoint: soluble on expression in E. coli

1) MEYFNVGKIVNTQGLQGEMRVLSVSDFAEERFKKGSQLALFDDKDRFVQEVTIVSHRKQKHFDIIKFKDMYHINAIEKYKGYTLKVSKDNQGDLQEGEFYYHQIIGMAVYEKDVLIGHVKEILQPGANDVWIVKRQGKRDLLLPYIPPVVLNVDVPNKRVDVELMEGLDDED ... not soluble
2) MSLAQQKPVEKVDSDGVYLMPDQMPEFPGGMQAMMKFLTTNIKYPVEAQKKGVSGRVIVQFVIMEDGTLDQAKVVRGVDPLLDEEALRVVKLMPKWKPGMDRGEAVKVRFTAPIMFNLSRSEAQRPTFPELVVPIGQEVENRSLQGVWQSCVAQPGEHGYKILLLPVLKIVSPDQTFMNIMTAGMNGRSNAIIYCQGEYSLPSDGTYVEMVEKSVDPVFIQGVKNEISVERLHDNLIKLSFTVPGQGRKVTEYWFRAPSPDVKIMAEGHHHHHH ... soluble
3) ENAFKRRRCGVCEVCQQPECGKCKACKDMVKFGGSGRSKQACQERRCPN ... soluble
4) MGSDKIHHHHHHMSSIFEKYSVRRVINASGKMTILGVSTVDKEVIEAIGEGCKNFFIIEELINKTGEYIANLLGCESALIVSSASAGIAQSVGAMIAKDDMSLVYNVNNPKKQVKREIIIPKGHNVDYGVPVEVMIRLGGGEVVEAGYANMCNKEHIIREINENTAAIMYIKSHHCVQKSMLSVLDAVQVAKEYNLPLIVDAAAEEDLNVYYELGADLVIYSGAKAIEGPSSGLVIGKKKYIDNVKLQSKGIGRAMKIGKENIVGLTCAIERYISNDKVTLKEMEDKLNPFIDKINTIKGVSASITRDSAGREILRGEIDFNEDIINKSTQQIINELRSGEIAIYTRDYKANEGKIEIDIRSVTGSDLDTIYNRIKNIVES ... not soluble
5) MGSDKIHHHHHHMNILFVSDLGSLGGGETSLFNLINEFASDNKKYNINNFLMCKTEGKLVDKCRGINVPCKVFDFKAAFKSFKFREISKAIKVIKEFLYSNNIDVIQCNEWSSAVLFSIISKVSSKNCKIIWICHGQWYKFNLIKRVLVNSLINRIISVSESVQNNLIINKLNKRKLLKQNLGIDLDRFRLGNGDKLREELHIQKEDKVLGVIARFQPIKGQKLVIEAARDIVEAGYKNYKFLLVGDSIFNNPKDSMYKNEVIEMIKEYKLQKNVLILGERNDVPDILALLDALIVPSINESFGMVVVEAFAAGCPVISTPCDGPMEIIKNGYSGVIINERNSENLKDAITDLMKEETDLEMMKINSMKESKKYDISNIAQFYCKQYALLCK ... not soluble
6) MGSDKIHHHHHHMTISYEKFHLKEVINASGKMTILGVSKVSEAVLAAQRFGGEHFFEMSELSVQTGAFLANLLKVEDAQIVSSASAGIAQSVAALIGKGSLYHAYHPYTEKIEQREIVLPKGHNVDYGTPVEVMVAQGGGQVVEAGYANMCSPEHVEMMISEKTAAILYIKSHHTVQKSMLTVAEAAKVAQRHKVPLIVDAAAEEDLFKYTEAGADLVIYSGAKAIEGPSAGLVVGKKEYIDWVRLQGKGIGRAMKIGKDNILGFTQAVEEYLAHGSESGASMQERLKPFVEAINNLSDLTAKIVQDGAGRDIYRASVKVDGRKTAKEVIQALKAESPAIYTREYQANNGIIEFDIRSVNQEEMNKIVQRLQEIMDKKEK ... not soluble
